System: Bacillus subtilis
Assay: cleaved RNA product abundance (RNA/gDNA barcode ratio) relative to median wild-type variant (ratio to wild type); higher = more accumulation of the downstream cleavage product
Settings: experiment (reporter, strain, medium): exp 4a: truncated aprE reporter, strain BJT201 with 2% xylose (RNase J1 expressed); cleavage site: cggR-gapA (positions -7 to +36 mutated)
observedProperty: cleaved RNA product abundance
API note: the answer field is a bare number with no unit suffix.

inputSequence | cleaved RNA product abundance
ACAGACGAAGGAGCCGCAAATAAGTTATGAAGGGATGAATAATCCCTCAATATAAATATCTCTCACTTATTTAAA | 0.558
ACAGACGAAGGAGCCGCAAAGAAGTTATTAATGAATGAATAAACCCTCAATATAAATATCTCTCACTTATTTAAA | 0.133
ACAGACGAAGGAGCCGCAAAGAAGTTATTAAGGGAGGAATAATCCCTAAATATAAATATCTCTCACTTATTTAAA | 0.324

Lab note: need cleaved RNA product abundance for `ACAGACGAAGGAGCCGCAAAGAAGTTATTAATGGATGAATAATCCCTCAATATAACTATCTCTCACTTATTTAAA` on Bacillus subtilis, anyone have it?
0.072

Lab note: need cleaved RNA product abundance for `ACAGACGAAGGAGCCGCAAAGGAGTTATTAAGGGATGAAGAATCCCTCAATATAAATATCTCTCACTTATTTAAA` on Bacillus subtilis, anyone have it?
0.859

Lab note: need cleaved RNA product abundance for `ACAGACGAAGGAGCCGCAAAGAAGTTTTTAAGGGATGACTAATCCCTCAATATAAATATCTCTCACTTATTTAAA` on Bacillus subtilis, anyone have it?
0.212

Lab note: need cleaved RNA product abundance for `ACAGACGAAGGAGCCGCAAAGAAGTTATTAAGGGAAGAATGATCCCTCAATATAAATATCTCTCACTTATTTAAA` on Bacillus subtilis, anyone have it?
0.925

---

System: Bacillus subtilis
Test: cleaved RNA product abundance (RNA/gDNA barcode ratio) relative to median wild-type variant (ratio to wild type); higher = more accumulation of the downstream cleavage product
Conditions: experiment (reporter, strain, medium): exp 2b: truncated aprE reporter, strain BJT200; cleavage site: cggR-gapA (positions -7 to +36 mutated)
Classify by measured cleaved RNA product abundance: yes if it is equal to or exceeds 0.3, no if it is smaller.

inputSequence | class
ACAGACGAAGGAGCCGCAAAGAAGTTATTAAGGGATGAATAAACCCTCTATATAAATATCTCTCACTTATTTAAA | no
ACAGACGAAGGAGCCGCAAAGAAGTTATTAAGGGATTAATAATTCCTCAATATAAATATCTCTCACTTATTTAAA | yes
ACAGACGAAGGAGCCGCAAAGAAGTTATTAAGGGATGAATAATCCCTCTATGTAAATATCTCTCACTTATTTAAA | no
ACAGACGAAGGAGCCGCAAAGAAGTTATTAAGGGATGAATAATTCCTCAATATAAATATCTCTCACTTATTTAAA | yes
ACAGACGAAGGAGCCGCAAAGAAGTAATTAAGGGATGACTAATCCCTCAATATAAATATCTCTCACTTATTTAAA | no

For this sequence, is measured cleaved RNA product abundance 0.3 or higher? `ACAGACGAAGGAGCCGCAAAGAAGTTATTAAGGGATTAATAATCCCTCAAGATAAATATCTCTCACTTATTTAAA`
no

For this sequence, is measured cleaved RNA product abundance 0.3 or higher? `ACAGACGAAGGAGCCGCAAAGAAGTTATAAAGGGATGAACAATCCCTCAATATAAATATCTCTCACTTATTTAAA`
no

For this sequence, is measured cleaved RNA product abundance 0.3 or higher? `ACAGACGAAGGAGCCGCTAAGAAGTTACTAAGGGATGAATAATCCCTCAATATAAATATCTCTCACTTATTTAAA`
no
